# STUDY_TARGET: CYP1A2 (Homo sapiens, UniProt P05177)
# Construct: from tissue; host or cells: human liver microsomes
# Sequence (P05177 1-516): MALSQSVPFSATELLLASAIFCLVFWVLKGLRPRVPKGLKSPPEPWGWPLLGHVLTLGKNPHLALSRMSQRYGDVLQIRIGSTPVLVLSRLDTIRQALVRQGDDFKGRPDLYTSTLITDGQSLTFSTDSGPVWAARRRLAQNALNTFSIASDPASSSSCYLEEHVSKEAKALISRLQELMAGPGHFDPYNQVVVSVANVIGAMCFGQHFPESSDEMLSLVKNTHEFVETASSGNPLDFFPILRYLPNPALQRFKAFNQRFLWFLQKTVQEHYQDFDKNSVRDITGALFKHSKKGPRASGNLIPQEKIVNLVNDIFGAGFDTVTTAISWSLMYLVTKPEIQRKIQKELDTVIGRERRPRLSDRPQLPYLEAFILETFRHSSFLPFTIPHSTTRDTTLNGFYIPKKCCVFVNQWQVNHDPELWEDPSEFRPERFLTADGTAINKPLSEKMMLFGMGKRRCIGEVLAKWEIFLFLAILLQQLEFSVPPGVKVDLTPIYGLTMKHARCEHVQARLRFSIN
# RUN_DESCRIPTION: Inhibition of human liver microsomal CYP1A2
# Type: in vitro ADME
# RUN_PARAMETERS: human liver microsomes, 10 μM test substance; read-out: Relative inhibition rate (%) CYP1A2
The following compounds are shown together with reported inhibition at 10 µM values.
OUTCOME_MEASURE: inhibition at 10 µM (%)

INSERT INTO results (smiles_repr, readout_value) VALUES
  ('CCCC[C@](C)(CO)Nc1nc(N)nc2cc(-c3cc(=O)n(C)cc3CN(C)CCOC)ccc12', 9.1),
  ('CCCCN(C)Cc1cn(C)c(=O)cc1-c1ccc2c(N[C@@](C)(CO)CCCC)nc(N)nc2c1', 10.7),
  ('CCCC[C@](C)(CO)Nc1nc(N)nc2cc(-c3cc(=O)[nH]cc3CN(C)CCOC)cnc12', -4.1),
  ('CCCC[C@](C)(CO)Nc1nc(N)nc2cc(-c3cc(=O)n(C)cc3CN3CCCCC3)ccc12', -10.5),
  ('CCCC[C@](C)(CO)Nc1nc(N)nc2cc(-c3cc(=O)[nH]cc3CN(C)C)cnc12', 10.7),
  ('CCCCN(C)Cc1c[nH]c(=O)cc1-c1cnc2c(N[C@@](C)(CO)CCCC)nc(N)nc2c1', 5.1),
  ('CCCC[C@](C)(CO)Nc1nc(N)nc2cc(-c3cc(=O)n(C)cc3CN(C)CCO)ccc12', 8.9),
  ('CCCCN(C)Cc1c[nH]c(=O)cc1-c1ccc2c(N[C@@](C)(CO)CCCC)nc(N)nc2c1', 9),
  ('CCCC[C@](C)(CO)Nc1nc(N)nc2cc(-c3cc(=O)[nH]cc3CN(C)CCOC)ccc12', 7.9),
  ('C=CCCN(C)Cc1c[nH]c(=O)cc1-c1ccc2c(N[C@@](C)(CO)CCCC)nc(N)nc2c1', 2.7),
  ('CCCC[C@](C)(CO)Nc1nc(N)nc2cc(-c3cc(=O)[nH]cc3COC)cnc12', 11.1);
